study system: Amine oxidase [flavin-containing] B (Rattus norvegicus, UniProt P19643)
assay comment: Inhibition of MAO-B in rat liver mitochondria using p-tyramine as substrate preincubated for 10 mins followed by substrate addition measured after 30 mins in presence of MAO-A inhibitor clorgyline by Amplex red dye-based fluorescence assay
recorded endpoint: IC50 (µM)

>  <structure smiles string>
CC(C)c1ccc(/C=N/NC(=O)C2=C(O)c3ccccc3S(=O)(=O)N2)cc1

>  <IC50 (µM)>
38.1

$$$$

P = O=C(N/N=C/c1ccccc1)C1=C(O)c2ccccc2S(=O)(=O)N1Cc1ccccc1
Q = O=C(N/N=C/c1cccc(Cl)c1)C1=C(O)c2ccccc2S(=O)(=O)N1
R = O=C(NN=C1CCCC1)C1=C(O)c2ccccc2S(=O)(=O)N1Cc1ccccc1
S = NNC(=O)C1=C(O)c2ccccc2S(=O)(=O)N1
Prompt: Falling order of IC50, please. Enter labels, ranked according to the request.
Response: Q, P, S, R
(Q: 39.3 µM, P: 9.52 µM, S: 4.33 µM, R: 0.99 µM)

====

study system: Amine oxidase [flavin-containing] B (Rattus norvegicus)
Sequence (P19643 whole entry): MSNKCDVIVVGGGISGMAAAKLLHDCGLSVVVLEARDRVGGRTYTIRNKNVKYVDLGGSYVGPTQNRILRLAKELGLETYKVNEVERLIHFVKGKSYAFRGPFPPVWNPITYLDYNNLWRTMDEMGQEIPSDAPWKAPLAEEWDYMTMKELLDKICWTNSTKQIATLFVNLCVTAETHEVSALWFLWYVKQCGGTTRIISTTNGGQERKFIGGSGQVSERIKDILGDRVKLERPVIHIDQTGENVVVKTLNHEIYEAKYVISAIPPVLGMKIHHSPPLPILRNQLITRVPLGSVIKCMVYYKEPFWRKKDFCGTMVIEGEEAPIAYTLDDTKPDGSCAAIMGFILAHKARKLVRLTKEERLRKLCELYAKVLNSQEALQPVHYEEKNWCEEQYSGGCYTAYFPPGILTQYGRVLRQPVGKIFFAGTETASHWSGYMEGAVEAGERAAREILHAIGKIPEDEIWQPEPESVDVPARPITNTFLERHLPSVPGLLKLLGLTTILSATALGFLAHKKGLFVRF
assay comment: Inhibition of MAO-B in rat liver mitochondria using p-tyramine as substrate preincubated for 10 mins followed by substrate addition measured after 30 mins in presence of MAO-A inhibitor clorgyline by Amplex red dye-based fluorescence assay
pIC50: −log10 of the molar value.
recorded endpoint: pIC50

>  <structure smiles string>
COC(=O)C1=C(O)c2ccccc2S(=O)(=O)N1Cc1ccccc1

>  <pIC50>
6.54

$$$$
>  <structure smiles string>
COC(=O)CN1C(=O)c2ccccc2S1(=O)=O

>  <pIC50>
6.57

$$$$
>  <structure smiles string>
C/C(=N\NC(=O)C1=C(O)c2ccccc2S(=O)(=O)N1)c1ccccc1

>  <pIC50>
5.48

$$$$
>  <structure smiles string>
COC(=O)C1=C(O)c2ccccc2S(=O)(=O)N1C

>  <pIC50>
4.64

$$$$
>  <structure smiles string>
C/C(=N\NC(=O)C1=C(O)c2ccccc2S(=O)(=O)N1Cc1ccccc1)c1ccccc1

>  <pIC50>
5.65

$$$$

I = CN1C(C(=O)NN)=C(O)c2ccccc2S1(=O)=O
II = CN1C(C(=O)N/N=C/c2cccc(Cl)c2)=C(O)c2ccccc2S1(=O)=O
III = C/C(=N\NC(=O)C1=C(O)c2ccccc2S(=O)(=O)N1)c1ccc(Cl)cc1
IV = C/C(=N\NC(=O)C1=C(O)c2ccccc2S(=O)(=O)N1Cc1ccccc1)c1ccc(F)cc1
V = O=C(NN=C1CCCC1)C1=C(O)c2ccccc2S(=O)(=O)N1
Prompt: Sort the compounds on pIC50; start with the lowest figure. Enter labels, ranked according to the request.
Response: II, III, IV, I, V
(II: 4.42, III: 4.96, IV: 5.22, I: 5.82, V: 6.04)

A = COc1ccc(/C=N/NC(=O)C2=C(O)c3ccccc3S(=O)(=O)N2)cc1
B = C/C(=N\NC(=O)C1=C(O)c2ccccc2S(=O)(=O)N1C)c1ccc(F)cc1
Prompt: For the pair A and B , which member has the lower pIC50 number? Label of pick, please.
Response: B

A = C/C(=N\NC(=O)C1=C(O)c2ccccc2S(=O)(=O)N1Cc1ccccc1)c1ccc(Cl)cc1
B = COc1ccc(/C=N/NC(=O)C2=C(O)c3ccccc3S(=O)(=O)N2C)cc1
C = Cc1ccc(/C=N/NC(=O)C2=C(O)c3ccccc3S(=O)(=O)N2Cc2ccccc2)cc1
D = O=C(N/N=C/c1ccc(Cl)cc1)C1=C(O)c2ccccc2S(=O)(=O)N1Cc1ccccc1
E = Cc1ccc(/C=N/NC(=O)C2=C(O)c3ccccc3S(=O)(=O)N2)cc1
Prompt: Falling order of pIC50, please. Enter labels, ranked according to the request.
Response: E, D, A, B, C

A = CC(C)c1ccc(/C=N/NC(=O)C2=C(O)c3ccccc3S(=O)(=O)N2C)cc1
B = NNC(=O)C1=C(O)c2ccccc2S(=O)(=O)N1Cc1ccccc1
C = O=C(N/N=C/c1cccc(Cl)c1)C1=C(O)c2ccccc2S(=O)(=O)N1Cc1ccccc1
Prompt: Sort the compounds on pIC50; start with the lowest figure. Enter labels, ranked according to the request.
Response: C, A, B

====

Species on record: Rattus norvegicus
assay comment: Selectivity index, ratio of IC50 for MAO-A in rat liver mitochondria to IC50 for MAO-B in rat liver mitochondria
recorded endpoint: Ratio IC50

>  <structure smiles string>
C/C(=N\NC(=O)C1=C(O)c2ccccc2S(=O)(=O)N1C)c1ccc(F)cc1

>  <Ratio IC50>
0.43

$$$$
>  <structure smiles string>
O=C(N/N=C/c1ccccc1)C1=C(O)c2ccccc2S(=O)(=O)N1

>  <Ratio IC50>
0.21

$$$$
>  <structure smiles string>
COc1ccc(/C=N/NC(=O)C2=C(O)c3ccccc3S(=O)(=O)N2Cc2ccccc2)cc1

>  <Ratio IC50>
0.83

$$$$
>  <structure smiles string>
C/C(=N\NC(=O)C1=C(O)c2ccccc2S(=O)(=O)N1C)c1ccc(Cl)cc1

>  <Ratio IC50>
14.7

$$$$

1 = COC(=O)C1=C(O)c2ccccc2S(=O)(=O)N1
2 = CCOc1ccc(/C=N/NC(=O)C2=C(O)c3ccccc3S(=O)(=O)N2)cc1
3 = CC(C)c1ccc(/C=N/NC(=O)C2=C(O)c3ccccc3S(=O)(=O)N2C)cc1
4 = C/C(=N\NC(=O)C1=C(O)c2ccccc2S(=O)(=O)N1Cc1ccccc1)c1ccc(Cl)cc1
Prompt: Sort the compounds on Ratio IC50; start with the lowest figure. Enter labels, ranked according to the request.
Response: 3, 4, 2, 1

====

study system: UniProt P19643
assay comment: Inhibition of MAO-B in rat liver mitochondria using p-tyramine as substrate preincubated for 10 mins followed by substrate addition measured after 30 mins in presence of MAO-A inhibitor clorgyline by Amplex red dye-based fluorescence assay
recorded endpoint: IC50 (µM)

>  <structure smiles string>
C/C(=N\NC(=O)C1=C(O)c2ccccc2S(=O)(=O)N1C)c1ccccc1

>  <study system>
UniProt P19643

>  <display unit>
µM

>  <IC50>
7.14

$$$$
>  <structure smiles string>
CCOc1ccc(/C=N/NC(=O)C2=C(O)c3ccccc3S(=O)(=O)N2)cc1

>  <study system>
UniProt P19643

>  <display unit>
µM

>  <IC50>
9.31

$$$$
>  <structure smiles string>
COc1ccc(/C=N/NC(=O)C2=C(O)c3ccccc3S(=O)(=O)N2Cc2ccccc2)cc1

>  <study system>
UniProt P19643

>  <display unit>
µM

>  <IC50>
0.29

$$$$

1 = C/C(=N\NC(=O)C1=C(O)c2ccccc2S(=O)(=O)N1)c1ccc(F)cc1
2 = O=C(N/N=C/c1ccccc1O)C1=C(O)c2ccccc2S(=O)(=O)N1
Prompt: For the pair 1 and 2 , which member has the lower IC50 number? Label of pick, please.
Response: 2
(2: 9.47 µM, 1: 40.3 µM)

====

Species on record: Rattus norvegicus
assay comment: Selectivity index, ratio of IC50 for MAO-A in rat liver mitochondria to IC50 for MAO-B in rat liver mitochondria
recorded endpoint: Ratio IC50

Recorded Ratio IC50, per entry:
>  <structure smiles string>
O=C(N/N=C/c1ccccc1O)C1=C(O)c2ccccc2S(=O)(=O)N1Cc1ccccc1

>  <recorded result>
4.41

$$$$
>  <structure smiles string>
O=C(N/N=C/c1cccc(Cl)c1)C1=C(O)c2ccccc2S(=O)(=O)N1Cc1ccccc1

>  <recorded result>
0.02

$$$$
>  <structure smiles string>
CN1C(C(=O)NN=C2CCCC2)=C(O)c2ccccc2S1(=O)=O

>  <recorded result>
0.04

$$$$

1 = O=C(N/N=C/c1ccccc1O)C1=C(O)c2ccccc2S(=O)(=O)N1
2 = C/C(=N\NC(=O)C1=C(O)c2ccccc2S(=O)(=O)N1C)c1ccccc1
Prompt: For the pair 1 and 2 , which member has the lower Ratio IC50 number? Label of pick, please.
Response: 1

1 = CN1C(C(=O)NN)=C(O)c2ccccc2S1(=O)=O
2 = CN1C(C(=O)N/N=C/c2ccccc2)=C(O)c2ccccc2S1(=O)=O
3 = COC(=O)CN1C(=O)c2ccccc2S1(=O)=O
Prompt: Sort the compounds on Ratio IC50; start with the lowest figure. Enter labels, ranked according to the request.
Response: 1, 3, 2
(1: 0.08, 3: 4.11, 2: 11.9)

a = Cc1ccc(/C=N/NC(=O)C2=C(O)c3ccccc3S(=O)(=O)N2)cc1
b = CCOc1ccc(/C=N/NC(=O)C2=C(O)c3ccccc3S(=O)(=O)N2Cc2ccccc2)cc1
c = CN1C(C(=O)N/N=C/c2ccccc2O)=C(O)c2ccccc2S1(=O)=O
d = C/C(=N\NC(=O)C1=C(O)c2ccccc2S(=O)(=O)N1)c1ccccc1
e = C/C(=N\NC(=O)C1=C(O)c2ccccc2S(=O)(=O)N1)c1ccc(F)cc1
Prompt: Falling order of Ratio IC50, please. Enter labels, ranked according to the request.
Response: a, b, c, e, d

A = COC(=O)C1=C(O)c2ccccc2S(=O)(=O)N1C
B = CCOc1ccc(/C=N/NC(=O)C2=C(O)c3ccccc3S(=O)(=O)N2C)cc1
Prompt: For the pair A and B , which member has the lower Ratio IC50 number? Label of pick, please.
Response: B
(B: 0.42, A: 1.15)
